All values here come from the supplement of paper PMC10567573.

Assign protein stability index to each entry below.
B1: DVL3 (parent)
chain: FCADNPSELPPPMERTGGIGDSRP

Variants of: B1
assay.details: protein stability index of a GFP-peptide fusion (GPS, HEK-293T) (PSI 1-6); higher = more stable;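 further: lentivirally expressed fusions sorted by FACS into six bins by GFP to DsRed ratio, PSI derived from sequencing read proportions per bin multiplied by bin number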
assay.conditions: c terminus: a fixed tail appended
Give the figure only, with no unit attached.

Return reported protein stability index; argument: "C2P"
4.73

Let us now turn to "P6R"
4.19

Let us now turn to "E8D"
4.39

Let us now turn to "D4I"
3.71

Let us now turn to "R15A"
5.48

Let us now turn to "R15S"
4.82

Let us now turn to "P6N"
4.61

Let us now turn to "L9S"
4.99

Let us now turn to "T16Y"
3.96

Let us now turn to "P24D"
4.86

Let us now turn to "R23D"
5.18

Let us now turn to "F1D"
5.43

Let us now turn to "I19A"
5.33

Let us now turn to "P10H"
4.3

Let us now turn to "G20E"
4.53

Let us now turn to "P24K"
4.92

Let us now turn to "A3Q"
3.45

Let us now turn to "E8W"
2.03

Let us now turn to "S7C"
3.85

Let us now turn to "N5W"
3.23

Let us now turn to "G20R"
3.83

Let us now turn to "G20I"
4.48
